We begin with a simple list: items and their reported Ratio.
# System: Trichomonas vaginalis
# assayNotes: Resistance index, ratio of MIC for MTZ-resistant Trichomonas vaginalis to MIC for MTZ-susceptible Trichomonas vaginalis
# Format: functional
assayMetric: Ratio

>>> valuereported("CCCCNC(=S)N1CCN(CCC(Oc2ccc(C(F)(F)F)cc2)c2ccccc2)CC1 (stereo unspecified)")
2
>>> valuereported("O=C(CCN1CCN(C(=S)NCc2ccccc2)CC1)c1ccccc1")
2
>>> valuereported("FC(F)(F)c1ccc(OC(CCN2CCN(C(=S)NCCc3ccccc3)CC2)c2ccccc2)cc1 (stereo unspecified)")
2
>>> valuereported("OC(CCN1CCN(C(=S)NCc2ccccc2)CC1)c1ccccc1 (stereo unspecified)")
2
>>> valuereported("CCCCNC(=S)N1CCN(CCC(O)c2ccccc2)CC1 (stereo unspecified)")
4
>>> valuereported("OC(CCN1CCN(C(=S)Nc2ccccc2)CC1)c1ccccc1 (stereo unspecified)")
2
>>> valuereported("O=C(CCN1CCN(C(=S)Nc2ccccc2)CC1)c1ccccc1")
2
>>> valuereported("O=C(CCN1CCN(C(=S)NC2CCCCC2)CC1)c1ccccc1")
2
>>> valuereported("OC(CCN1CCN(C(=S)NCCc2ccccc2)CC1)c1ccccc1 (stereo unspecified)")
4
>>> valuereported("Cc1ncc([N+](=O)[O-])n1CCO")
15
>>> valuereported("O=C(CCN1CCN(C(=S)NCCc2ccccc2)CC1)c1ccccc1")
2
